# Assay: Rough solubility of the amorphous phosphate in solvents
# Format: physicochemical
# Experimental Setup: Toluene, organic solvent or mixture, thermodynamic from solid
Assay Readout: solubility

I'd like to know its solubility. The compound in question is C[C@@H]1c2cnc(C(F)(F)F)n2CCN1C(=O)C[C@H](N)Cc1cc(F)c(F)cc1F
< 1000 µg/mL

----------
# Assay: PK/PD experiment of ICR mice: plasma concentration
# Type: in vivo, CD-1 (ICR) mice
# Experimental Setup: CD-1 (ICR), mouse, oral dose 1 mg/kg, 1 hour
Assay Readout: concentration at 1 h (ng/mL)
Reply numerically in ng/mL, unit not repeated.

I'd like to know its concentration at 1 h. The compound in question is C[C@@H]1c2cnc(C(F)(F)F)n2CCN1C(=O)C[C@H](N)Cc1cc(F)c(F)cc1F [DPPIV-P1]
72.8

----------
# Assay: Rough solubility of the amorphous phosphate in solvents
# Type: physicochemical
# Experimental Setup: Acetic acid, organic solvent or mixture, thermodynamic from solid
# Experimental: The rough solubility of the amorphous phosphate prepared in Example 1 was measured. During the test, about 2 mg of the amorphous phosphate prepared in Example 1 was weighed and put into a 3 mL glass bottle, the solvents listed in the following Table 8 were added separately at an amount of 20 microliters/each time, and it was observed whether the sample was completely dissolved. If the sample was still not dissolved completely after 2.0 mL of the solvents was added, the test ended.
Assay Readout: solubility

I'd like to know its solubility. The compound in question is C[C@@H]1c2cnc(C(F)(F)F)n2CCN1C(=O)C[C@H](N)Cc1cc(F)c(F)cc1F [Example 1]
< 54 mg/mL

----------
# Assay: Rough solubility of the amorphous phosphate in solvents
# Assay type: physicochemical
# Experimental Setup: IPAc, organic solvent or mixture, thermodynamic from solid
Assay Readout: solubility

I'd like to know its solubility. The compound in question is C[C@@H]1c2cnc(C(F)(F)F)n2CCN1C(=O)C[C@H](N)Cc1cc(F)c(F)cc1F
< 1100 µg/mL

----------
# Assay: Rough solubility of the amorphous phosphate in solvents
# Assay type: physicochemical
# Experimental Setup: cyclohexanol, organic solvent or mixture, thermodynamic from solid
Assay Readout: solubility

I'd like to know its solubility. The compound in question is C[C@@H]1c2cnc(C(F)(F)F)n2CCN1C(=O)C[C@H](N)Cc1cc(F)c(F)cc1F
< 1000 µg/mL

----------
# Assay: PK/PD experiment of ICR mice: plasma concentration
# Assay type: in vivo, CD-1 (ICR) mice
# Experimental Setup: CD-1 (ICR), mouse, oral dose 1 mg/kg, 3 hours
Assay Readout: concentration at 3 h

I'd like to know its concentration at 3 h. The compound in question is C[C@@H]1c2cnc(C(F)(F)F)n2CCN1C(=O)C[C@H](N)Cc1cc(F)c(F)cc1F [DPPIV-P1]
52.2 ng/mL

----------
# Assay: Rough solubility of the amorphous phosphate in solvents
# Assay type: physicochemical
# Experimental Setup: MeOH, organic solvent or mixture, thermodynamic from solid
Assay Readout: solubility

I'd like to know its solubility. The compound in question is C[C@@H]1c2cnc(C(F)(F)F)n2CCN1C(=O)C[C@H](N)Cc1cc(F)c(F)cc1F
67.5 to 135 mg/mL

----------
# Assay: PK/PD experiment of ICR mice: plasma concentration
# Format: in vivo, CD-1 (ICR) mice
# Experimental Setup: CD-1 (ICR), mouse, oral dose 0.1 mg/kg, 1.33 hours
Assay Readout: concentration at 1.33 h (ng/mL)
Reply numerically in ng/mL, unit not repeated.

I'd like to know its concentration at 1.33 h. The compound in question is C[C@@H]1c2cnc(C(F)(F)F)n2CCN1C(=O)C[C@H](N)Cc1cc(F)c(F)cc1F [DPPIV-P1]
6.51
